- target under test: UniProt P43405
- protocol description: SYK flash plate assay
- Type: biochemical
- condition parameters: class symbols; read-out: IC50 SYK (enzyme assay)
pIC50: −log10 of the molar value.
I'd be grateful if you could share measured pIC50 for these entries.

Previously resolved entries follow.
{"compound": "COc1cc2ccc1OCCCCNC(=O)C1(C)Oc3ccc(cc3NC1=O)Nc1nc(ncc1F)N2 (stereo not shown)", "target under test": "UniProt P43405", "pIC50": "4.30 to 5.52"}
{"compound": "CC12CCOC(=O)NCc3cccc(c3)Nc3ncc(F)c(n3)Nc3ccc(c(c3)NC1=O)O2 (stereo not shown)", "target under test": "UniProt P43405", "pIC50": "> 6.52"}
{"compound": "CC12Oc3ccc(cc3NC1=O)Nc1nc(ncc1F)Nc1cccc(c1)NC(=O)N1CCC[C@H]1C(=O)NCCCNC2=O (stereo partly shown)", "target under test": "UniProt P43405", "pIC50": "4.30 to 5.52"}
{"compound": "COc1ccc2cc1Nc1ncc(F)c(n1)Nc1ccc3c(c1)NC(=O)C(C)(O3)C(=O)NCCNC2=O (stereo not shown)", "target under test": "UniProt P43405", "pIC50": "5.52 to 6.52"}
{"compound": "CC12Oc3ccc(cc3NC1=O)Nc1nc(ncc1F)Nc1cccc(c1)CCNC2=O (stereo not shown)", "target under test": "UniProt P43405", "pIC50": "4.30 to 5.52"}
{"compound": "CN1CC(=O)Nc2cccc(c2)Nc2ncc(F)c(n2)Nc2ccc3c(c2)NC(=O)[C@@](C)(O3)C1=O (single isomer, unassigned)", "target under test": "UniProt P43405", "pIC50": "5.52 to 6.52"}

Now take the following compound into account.
Tell me the measured pIC50 of COc1cc2cc(c1)C(=O)NCCNC(=O)C1(C)Oc3ccc(cc3NC1=O)Nc1nc(ncc1F)N2 (stereo not shown) , please.
5.52 to 6.52
